System: SF-539 CNS
ASSAY_EXPLANATION: NCI tumour cell line growth inhibition, 48 h; in the data active means GI50 below about 0.43 µM; inactive means the rest
Choose the fitting class; nothing outside Yes = active, No = inactive is accepted.

C#Cc1cccc(NC(=O)Nc2ccc(NC(=O)CCl)cc2)c1 | No
Cc1sc2ncnc(Sc3nc4ccccc4[nH]3)c2c1C | No
COc1ccc(/C=C/C(=O)c2ccc(Nc3ncnc4ccccc34)cc2)cc1OC | No
O=c1cc/c(=N\Nc2ccccc2)c(=O)/c1=N/Nc1ccccc1 | No
[N-]=[N+]=Nc1ncc(-c2ccc(C(F)(F)F)cc2)c(NC2CCCCCC2)n1 | No
N#C/C(=C\c1cn(-c2ccccc2)c2ccccc12)C(=O)O | No
CN(C)c1cccc2[nH]c(-c3[nH]ncc3Nc3ccnc(N)n3)nc12 | Yes
CCCCCCN1C(=O)/C(=c2\sc3n(c2=O)C2C(NN=3)N(CC)C(=O)N2CC)c2ccccc21 (stereo not given) | No

Problem: Write down the call the test reported for this compound. Item: COC(=O)Nc1ccc2ccc3c(NC(=O)OC)ccc4ccc1c2c43 (tested in a mixture with another compound)
Solution: No

Problem: Given COC(=O)c1c2c(c(C)[n+]([O-])c1C)C(=O)C=C(NCc1ccc(Cl)cc1)C2=O , state the outcome it received in this test.
Solution: No

###

Catalogue of TGI values
Test system: RPMI-8226 leukemia
ASSAY_EXPLANATION: NCI tumour cell line growth inhibition, 48 h

The examples below pair each entry with its known result.
O=C(O)Cc1cc(=O)oc2cc(O)c(Cl)cc12 | > 100 µM
C[C@]12CC[C@H]3[C@@H](CCC4=CC(=O)CC[C@@H]43)[C@@H]1CC[C@@H]2OC1(O)C(=O)c2ccccc2C1=O | 80 µM
CC1(C)OC2C(CO)OC(n3ccc(=O)[nH]c3=O)C2O1 (stereo not drawn) | > 100 µM
CCCCCCN(C(=O)Oc1ccccc1)C(C#N)c1ccccc1 (stereo not drawn) | > 100 µM

Problem: Please give the measured TGI for this compound: CN(C(=O)C1=CCCCCC1)c1ccccc1I
Solution: > 100 µM

Problem: Recorded TGI for CCCCCC(=O)N1c2ccccc2NC2=C(C(=O)CC(c3ccc(OC)c(OC)c3)C2)C1c1ccc(C(F)(F)F)cc1 (stereo not drawn) , please?
Solution: > 100 µM

Problem: What value of TGI has been reported for the following compound? COC(=O)C1=CN(CC2=CC(=O)C(C)=CC2=O)C=C(C(=O)OC)C1c1cccc(OC)c1OC
Solution: 10.9 µM

Problem: What measured TGI goes with CCN(CC)CCC(=O)Nc1cccc2c1C(=O)c1c(c(O)c3ccccc3c1O)C2=O ?
Solution: 43.1 µM

###

Test system: HOP-92 NSCLC
ASSAY_EXPLANATION: NCI tumour cell line growth inhibition, 48 h
OBSERVATION_TYPE: TGI

COc1cc2c(/C=C3/C(=O)Nc4ccccc43)c(Cl)n(Cc3ccccc3)c2cc1C | > 100 µM
CCN(CC)CCC(=O)Nc1cccc2c1C(=O)c1c(c(O)c3ccccc3c1O)C2=O | 8.56 µM
CCCCCC(=O)N1c2ccccc2NC2=C(C(=O)CC(c3ccc(OC)c(OC)c3)C2)C1c1ccc(C(F)(F)F)cc1 (stereo not drawn) | > 100 µM
Nc1ccc(N=Nc2ccc(/C=C/c3ccc(N=Nc4ccc(N)c5ccc(S(=O)(=O)O)cc45)cc3S(=O)(=O)O)c(S(=O)(=O)O)c2)c2cc(S(=O)(=O)O)ccc12 | > 100 µM
COc1ccc(/C=C/C(=O)NCC(NC(=O)/C=C/c2ccc(OC)c(OC)c2)C(=O)O)cc1OC (stereo not drawn) | 0.74 µM
O=C(Cc1ccccc1)N/N=C(/CCN1CCCC1)CC(c1ccccc1)c1c(O)c2ccccc2oc1=O (stereo not drawn) | > 100 µM

Problem: TGI lookup needed for O=c1nc2n(CCO)c(-c3ccccc3)c(-c3ccccc3)nc-2c(=O)[nH]1 , thanks.
Solution: > 100 µM

Problem: What does the data say about its TGI? Entry: COC(=O)C1=CN(CC2=CC(=O)C(C)=CC2=O)C=C(C(=O)OC)C1c1cccc(OC)c1OC
Solution: 17.1 µM

###

Measured TGI values are reported for all entries that follow.
System: SF-295 CNS
ASSAY_EXPLANATION: NCI tumour cell line growth inhibition, 48 h

Use these answered entries as a reference point.
COc1ccc(CSCc2cc(OC)c(OC)c(OC)c2)cc1 | > 100 µM
N#CCCc1nc2ccc(Br)cc2c(=O)n1-c1ccc(O)c([N+](=O)[O-])c1 | 47.8 µM
COC(=O)/C=C/c1cc(OC)c2c(c1)C(C(=O)OC)C(c1ccc(OC)c(OC)c1)O2 (stereo unspecified) | > 100 µM
CC(=O)OC1[C@H]2c3cc4c(cc3CN3CCC(C[C@@H]1OC(C)=O)C23)OCO4 (stereo partly specified) | > 75 µM

Problem: For the molecule shown here, N[C@@H]1C[C@H](N)c2c(Cl)sc(Cl)c21 , give the reported TGI.
Solution: > 100 µM

Problem: So what does the record say about TGI for COc1ccc(NC2=C(Sc3nc(C)cc(C)n3)C(=O)N(Cc3ccccc3)C2=O)cc1Cl ?
Solution: > 160 µM

Problem: Return reported TGI; argument: O=C(Nc1ccccc1)N1CCNC1=S
Solution: > 100 µM

###

Tested on: SK-MEL-2 melanoma
ASSAY_EXPLANATION: NCI tumour cell line growth inhibition, 48 h
OBSERVATION_TYPE: TGI

NC(=S)N/N=C/c1cc(CN2CCOCC2)c(N)cn1 | > 100 µM
Oc1ccccc1C=Nc1ccc(Oc2ccc(Cl)cc2)c(Cl)c1 | 32.4 µM

Problem: Using the record for CCOC(=O)CNC(=O)C(CSC(=O)N(O)c1ccc(Br)cc1)NC(=O)CCC(N)C(=O)OCC (stereo not given) , report its TGI.
Solution: > 50 µM

Problem: Please look up its TGI: COc1ccc(NC2=C(Sc3nc(C)cc(C)n3)C(=O)N(Cc3ccccc3)C2=O)cc1Cl
Solution: > 160 µM

Problem: I'd like to know its TGI. The molecule in question is N#C/C(=C\c1cn(-c2ccccc2)c2ccccc12)C(=O)O
Solution: > 100 µM

Problem: // TGI lookup, key: O=C1C(NCCc2cc(Br)c(O)c(Br)c2)=CC(=O)c2ncccc21
Solution: 29.9 µM

Problem: Can you share its TGI? I mean this molecule: CC(=O)Nc1ccc(-c2nnc(SCC(=O)Nc3ccccc3Cl)o2)cc1
Solution: > 100 µM

###

System: MOLT-4 leukemia
ASSAY_EXPLANATION: NCI tumour cell line growth inhibition, 48 h; in the data active = GI50 below about 0.43 µM; inactive = the rest
Please answer using one outcome listed in active, inactive

As a guide, the following entries are already answered.
COc1ccc(C2=NNC(c3ccc(-c4ccc(OC)cc4[N+](=O)[O-])o3)C2)cc1 (stereo unspecified) | inactive
COc1ccc(-c2ccc(/C=N/n3cn[nH]c3=S)o2)c([N+](=O)[O-])c1 | inactive
CNC(=O)c1cc(Oc2ccc3nc(NC(=O)Nc4ccc(Cl)c(Cl)c4)sc3c2)ccn1 | inactive
OCCNc1nc(NCCO)nc(Nc2ccc(C3=NN(c4cc(Cl)cc(Cl)c4)C(c4ccc(Cl)cc4)C3)cc2)n1 (stereo unspecified) | inactive
CN(C)c1cccc2[nH]c(-c3[nH]ncc3Nc3ccnc(N)n3)nc12 | active
OCCN(CO)CN(CN(CO)CCO)c1nc(N(CN(CO)CCO)CN(CO)CCO)nc(N(CN(CO)CCO)CN(CO)CCO)n1 | inactive

Problem: Test call, this compound: C[C@]12CC[C@H]3[C@@H](CC=C4C[C@@H](O)CC[C@@]43C)[C@@H]1C/C(=C\c1cccc(OCCN3CCOCC3)c1)[C@@H]2O
Solution: inactive

Problem: Which outcome was entered for the compound COc1cc(/C=C2\CCCC3=C2NC(N)=NC3c2cc(OC)c(OC)c(OC)c2)cc(OC)c1OC (stereo unspecified) in this test?
Solution: inactive

Problem: Hi, sorry to bother you, what did the test record for Clc1nc(Cl)c2ncn(C/C=C\Cn3cnc4c(Cl)nc(Cl)nc43)c2n1 ?
Solution: inactive

Problem: Hello, I am checking results. What call was entered for N#Cc1c(NC(=O)c2cccs2)[n+]([O-])c2ccccc2[n+]1[O-] ?
Solution: inactive

Problem: Lab log entry: CCOC(=O)c1cc2c(cc1Cl)SC(N(c1ccc(F)cc1)S(=O)(=O)c1ccc(OC)cc1)=NS2(=O)=O — outcome as called in the assay?
Solution: inactive

Problem: Dear all, I need the recorded test outcome for O=C1N=C2c3c(sc4c3CCCC4)N=CN2C1N=Nc1ccc(Cl)cc1 (stereo unspecified) , thank you.
Solution: inactive

###

Listed here are molecules together with their documented TGI.
Tested on: HT29 colon
ASSAY_EXPLANATION: NCI tumour cell line growth inhibition, 48 h

Sample answers from the record:
CC(=O)Nc1ccc(-c2nnc(SCC(=O)Nc3ccccc3Cl)o2)cc1 | > 100 µM
Oc1ccccc1C=Nc1ccc(Oc2ccc(Cl)cc2)c(Cl)c1 | 40.1 µM
CCN(CC)c1ccc(/C=C/C2=NN(c3cccc(S(=O)(=O)O)c3)C3(C2)C(Cl)C(=O)N3c2nc3ccccc3s2)cc1 (centres undefined) | 33.9 µM

Problem: # query: TGI of entry CC(C#N)Nc1ccc(Oc2ccc(C(C)(C)c3ccc(Oc4ccc(NC(C)C#N)cc4)cc3)cc2)cc1 (centres undefined)
Solution: > 100 µM

Problem: Consider the molecule shown here: COC(=O)c1c/c(=N\NC(=O)CC(=O)Nc2ccccc2Cl)c2ccccc2o1 What is its recorded TGI?
Solution: > 100 µM

Problem: Give its TGI value. Item: CCC(=O)N(c1ccccc1)C(C)CN1CCC(O)(c2ccccc2)CC1 (centres undefined)
Solution: > 100 µM

Problem: Quick one: TGI for N#C/C(=C\c1cn(-c2ccccc2)c2ccccc12)C(=O)O ?
Solution: > 100 µM

Problem: Name the recorded TGI for CCOC(=O)/C(C#N)=C(O)/C(=C/c1ccccc1Cl)NC(=O)c1ccccc1 .
Solution: > 100 µM

Problem: // lookup TGI for COc1cc2c(cc1OCCCCCOc1cc(-c3ccc(F)cc3)nc(C)n1)N=C[C@@H]1CCCN1C2=O
Solution: > 100 µM

From: PubChem BioAssay (NCI)
